- Tested on: H9C2
- Measurement description: Cytotoxicity assay (MTT), H9C2
- Type: cell-based, rat
- Assay conditions: normal cell line; MTT, 48 h; mean ± S.D., 3 experiments
Measured metric: IC50 (nM)
The answer is to be given in nM; state only the numeric part.

*Q* Short answer please: IC50, H9C2, entry O=[Se](O)O [Na2SeO3, Sodium selenite, reference compound]
*A* 1500

====

- Measurement description: Cytotoxicity assay (MTT), MDCK
- Assay type: cell-based, Canine
- Assay conditions: dog, MDCK cells, normal cell line, mean ± S.D., 3 experiments
Measured metric: IC50 at 48 h (µM)
The answer is to be given in µM; state only the numeric part.

Take a look at these entries with their results.
Molecule	Reported value
OC1(c2[se][n+]3ccsc3c2Br)CCCCC1	6.58
OC1(c2[se][n+]3ccccc3c2Br)CCCCCC1.[Br-]	1.51
COc1cccc2c1C(=O)c1c(O)c3c(c(O)c1C2=O)C[C@@](O)(C(=O)CO)C[C@@H]3O[C@H]1C[C@H](N)[C@H](O)[C@H](C)O1 [Doxorubicin, reference compound]	57
Cc1cc[n+]2[se]c(C3(O)CCCCC3)c(Br)c2c1	2.54

*Q* I'd like to know its IC50 at 48 h. The molecule in question is OC1(c2[se][n+]3ccccc3c2Br)CCCCC1.[Cl-]
*A* 2.91

*Q* I'd like to know its IC50 at 48 h. The molecule in question is OC(c1ccccc1)(c1ccccc1)c1[se][n+]2ccccc2c1Br
*A* 6.27
